Here, each record is paired with measured melting point data.

Sample answers from the record:
O=C1CC(c2ccc(O)cc2)Oc2cc(O)c(CCC3CCCCC3)c(O)c21 (centres unmarked) [2d]: 213.3 to 215.3 °C
C=C(C)C(Cc1c(O)cc(O)c2c1OC(c1ccc(O)cc1)CC2=O)OC(C)=O (centres unmarked) [1b]: 189 to 191.5 °C
CC(=O)OC(Cc1c(O)cc(O)c2c1OC(c1ccc(O)cc1)CC2=O)C(C)C (centres unmarked) [1e]: 155 to 156 °C

-- ask Entry under review: CC1(C)OC1Cc1c(O)cc(O)c2c1OC(c1ccc(O)cc1)CC2=O (centres unmarked) [1a] . Reported melting point?
-- reply 191.5 to 193 °C

-- ask Looking for the measured melting point of O=C1CC(c2ccc(O)cc2)Oc2cc(O)c(CC=C3CCCCC3)c(O)c21 (centres unmarked) [2c] , can you help?
-- reply 204.4 to 205.2 °C
